# method: binders from COS7 lysate, DM2A8 probe, primary screen, torsin A project, cell lysate, small-molecule microarray, fluorescence 635/667 (AID 1065)
# measurement_conditions: higher = more signal, COS7 lysate expressing mutant human TOR1A
Below, each of the compounds is paired with its reported composite z-score value.

Sample records with composite z-score:
compound	composite z-score
[N-]=[N+]=Nc1ccccc1C[C@]1(C(=O)N2CCOCC2)N=C(c2ccc(OCCCO)cc2)O[C@H]1c1ccccc1N=[N+]=[N-]	1.05
COc1cc(OC)c(C(O)C2C=CC3C(=O)N(c4ccccc4)C(=O)C3N2Nc2ccc(C(C)C)cc2)cc1Br (stereo not drawn)	-0.0919
CC1CC/C=C\[C@H]2OC34C=CCN(Cc5ccccc5)C(=O)[C@H]3N(CCCCCCO)C(=O)[C@@H]4C2C(=O)O1 (stereo partly drawn)	0.96
C=C(C)[C@@H]1CC=C(C(O)C2C=CC3C(=O)N(C)C(=O)C3N2Nc2ccc([N+](=O)[O-])cc2[N+](=O)[O-])CC1 (stereo partly drawn)	0.294
CC(C)C[C@@H]1NC(=O)[C@@]23C(=O)N[C@@H](Cc4ccccc4)C2[C@H](C)[C@@]2(C)O[C@H]2C3/C=C/C/C=C\CNC(=O)CNC1=O (stereo partly drawn)	0.0664

# compound CCOC(=O)C[C@H]1[C@H](OC(=O)c2cc3ccccc3oc2=O)[C@@H](NC(=O)CC(C)C)c2cc(OCCCO)ccc2N1C(=O)Cc1ccc(OC)cc1 ; its composite z-score = -0.115

composite z-score for C=C(COC)C(=O)CC[C@@H](OC(C)=O)c1ccccc1OCCO is -0.0765

Please fill in: composite z-score reported for C=CCN1Cc2ccccc2[C@H]2OC(c3ccc(OCCCO)cc3)=N[C@@]2(CCS(=O)(=O)c2ccccc2)C1=O = 0.852

Value of measured composite z-score for the entry COC(=O)C[C@H]1O[C@@]2(C[C@@H]1[Si](C)(C)C)C(=O)N(C)c1ccccc12 : 0.105

Noted for OCCCC1=CC(c2ccc(CN3CCCC3)cc2)N(Cc2cccc(OC(F)(F)F)c2)CC1 (stereo not drawn) : its composite z-score reads 0.134

====

# assay_system: Neurogenic locus notch homolog protein 3 (Homo sapiens) (UniProt Q9UM47)
# Sequence (Q9UM47 whole entry, looked up): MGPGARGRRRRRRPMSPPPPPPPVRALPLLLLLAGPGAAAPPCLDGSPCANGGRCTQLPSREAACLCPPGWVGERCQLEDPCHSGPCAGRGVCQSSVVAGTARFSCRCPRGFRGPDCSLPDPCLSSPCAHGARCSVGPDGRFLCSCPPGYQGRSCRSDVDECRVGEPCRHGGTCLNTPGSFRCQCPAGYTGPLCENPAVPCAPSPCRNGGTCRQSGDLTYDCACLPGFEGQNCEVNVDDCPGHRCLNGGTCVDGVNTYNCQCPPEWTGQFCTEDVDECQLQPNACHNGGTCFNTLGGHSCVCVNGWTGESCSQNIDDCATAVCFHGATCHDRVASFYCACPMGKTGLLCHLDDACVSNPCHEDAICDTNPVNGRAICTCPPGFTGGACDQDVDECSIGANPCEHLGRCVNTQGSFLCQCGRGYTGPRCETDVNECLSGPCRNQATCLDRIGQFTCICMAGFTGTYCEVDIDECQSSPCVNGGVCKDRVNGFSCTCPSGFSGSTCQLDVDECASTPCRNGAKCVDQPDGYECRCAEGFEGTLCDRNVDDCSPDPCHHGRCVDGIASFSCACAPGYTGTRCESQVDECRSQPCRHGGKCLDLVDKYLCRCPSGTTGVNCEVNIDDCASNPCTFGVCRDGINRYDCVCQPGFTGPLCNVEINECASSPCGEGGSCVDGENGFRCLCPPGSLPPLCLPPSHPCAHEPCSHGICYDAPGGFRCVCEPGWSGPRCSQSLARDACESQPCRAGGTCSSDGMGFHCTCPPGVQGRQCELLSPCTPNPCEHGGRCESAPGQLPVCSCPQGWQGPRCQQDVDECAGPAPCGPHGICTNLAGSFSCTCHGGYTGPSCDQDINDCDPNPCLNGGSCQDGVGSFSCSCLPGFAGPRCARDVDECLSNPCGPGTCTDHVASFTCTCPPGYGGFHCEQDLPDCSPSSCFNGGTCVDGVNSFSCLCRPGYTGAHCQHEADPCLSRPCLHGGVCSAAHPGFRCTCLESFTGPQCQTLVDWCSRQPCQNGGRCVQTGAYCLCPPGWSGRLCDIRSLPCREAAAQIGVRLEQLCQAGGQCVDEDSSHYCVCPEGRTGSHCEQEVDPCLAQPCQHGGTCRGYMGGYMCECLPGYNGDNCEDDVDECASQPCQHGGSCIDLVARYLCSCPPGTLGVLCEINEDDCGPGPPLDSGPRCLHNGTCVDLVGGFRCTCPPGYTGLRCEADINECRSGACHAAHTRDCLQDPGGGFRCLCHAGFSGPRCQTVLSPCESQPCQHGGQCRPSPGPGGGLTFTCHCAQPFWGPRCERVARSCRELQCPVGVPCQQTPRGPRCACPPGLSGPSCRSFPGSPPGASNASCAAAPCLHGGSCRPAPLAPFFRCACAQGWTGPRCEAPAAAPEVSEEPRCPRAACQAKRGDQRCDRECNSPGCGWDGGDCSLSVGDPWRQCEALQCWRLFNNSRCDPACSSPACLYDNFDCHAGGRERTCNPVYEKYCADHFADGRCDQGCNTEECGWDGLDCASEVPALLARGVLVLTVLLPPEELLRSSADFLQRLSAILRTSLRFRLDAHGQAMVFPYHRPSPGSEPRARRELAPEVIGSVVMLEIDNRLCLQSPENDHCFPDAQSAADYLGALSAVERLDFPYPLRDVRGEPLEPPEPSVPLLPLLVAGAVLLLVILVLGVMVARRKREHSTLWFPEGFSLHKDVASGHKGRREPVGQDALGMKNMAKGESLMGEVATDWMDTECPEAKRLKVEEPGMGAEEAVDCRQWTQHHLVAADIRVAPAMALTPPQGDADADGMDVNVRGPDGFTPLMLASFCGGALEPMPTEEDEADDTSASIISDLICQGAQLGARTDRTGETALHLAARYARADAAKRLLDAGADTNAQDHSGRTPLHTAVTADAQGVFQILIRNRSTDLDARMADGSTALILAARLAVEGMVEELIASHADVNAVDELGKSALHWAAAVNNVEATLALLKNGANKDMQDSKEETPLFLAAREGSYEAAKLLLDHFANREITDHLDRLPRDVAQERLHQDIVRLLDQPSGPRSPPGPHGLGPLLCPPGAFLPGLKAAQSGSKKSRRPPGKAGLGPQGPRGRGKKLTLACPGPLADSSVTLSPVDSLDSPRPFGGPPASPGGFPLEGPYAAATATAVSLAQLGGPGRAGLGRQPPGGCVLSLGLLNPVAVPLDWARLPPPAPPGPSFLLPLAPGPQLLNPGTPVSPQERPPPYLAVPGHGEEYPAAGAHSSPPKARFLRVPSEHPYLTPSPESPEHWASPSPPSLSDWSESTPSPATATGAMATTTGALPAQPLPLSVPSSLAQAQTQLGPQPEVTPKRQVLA
# method: small molecules binding NOTCH3 protein – biochemical, 635/667 nm fluorescence, primary screen (AID 1096)
# measurement_conditions: small-molecule microarray, 635 nm fluorescence, higher = more signal
parameter_measured: composite z-score
Could you keep your reply to the number by itself?

Item CC(C)C[C@@H]1NC(=O)[C@@H]2C[C@H](C(=O)NCCCCCCNC(=O)CS)[C@H](c3cccc(OCCO)c3)N2C1=O ; assay system Neurogenic locus notch homolog protein 3 (Homo sapiens) (UniProt Q9UM47); composite z-score reported as 1.02

Field composite z-score (Neurogenic locus notch homolog protein 3 (Homo sapiens) (UniProt Q9UM47)), entry C=CCC(OC(C)=O)[C@@H]1[C@@H](N(Cc2ccc(-c3cccc(C(F)(F)F)c3)o2)C(=O)Cc2ccc(F)cc2)c2cc(OCCCO)ccc2N1C(=O)Cc1ccc2ccccc2c1 (stereo partly drawn) : -0.855

Assay Neurogenic locus notch homolog protein 3 (Homo sapiens) (UniProt Q9UM47), sample COC(=O)C(CC#Cc1ccc2c(c1)[C@]1(C(=O)N2)[C@H](C(=O)NC[C@H](O)c2ccccc2)[C@H]2C(=O)O[C@H](c3ccccc3)[C@H](c3ccccc3)N2[C@@H]1c1ccccc1OCCO)C(=O)OC , composite z-score read: 1.12

====

# method: plasmodial surface anion channel blockers, osmotic lysis – cell-based, P. falciparum Indochina, OD700, 18 h, primary screen (AID 1157)
# measurement_conditions: P. falciparum Indochina infected erythrocytes, osmotic lysis OD700, 18 h; higher = more signal, called active from +8 up or from −8 down
# z-score >= 0.6 gives Met, anything below gives Not met

compound	label_value
CCOC(=O)C1=C[C@@H](C(C)(C)C)N(S(=O)(=O)c2ccc(C)cc2)[C@H]1c1ccc(C#N)cc1	Met
CN1C(=O)C2C(C3CC3)C=C3CN(Cc4cccc(Cl)c4)[C@@H]([C@@H](O)Cc4ccccc4)C3C2C1=O (some centres undefined)	Met
C[C@@H]1NC(=O)C([C@@H](C)OCc2ccccc2)NC(=O)[C@@]23C(=O)N[C@@H](Cc4ccccc4)C2[C@H](C)[C@@]2(C)O[C@H]2C3/C=C/C/C=C\CNC1=O (some centres undefined)	Not met
CC(C)NC(=O)[C@@H]1c2ccccc2C(=O)N(Cc2ccc(OC(F)(F)F)cc2)[C@H]1c1ccc(CO)cc1	Not met
CCCCC(=C=CC[C@H](O)c1ccc(CO)o1)CCO	Not met

Request: Kindly determine if z-score recorded for CC1CC/C=C\[C@H]2OC34C=CCN(Cn5nnc6ccccc65)C(=O)[C@H]3N(CCCCCCO)C(=O)[C@@H]4C2C(=O)O1 (some centres undefined) is above or exactly 0.6.
Response: Not met

Request: Please tell me: is the compound CCCC#C[Si](O[C@H](CC)c1cn(Cc2ccccc2)nn1)(C(C)C)C(C)C at or over 0.6 in terms of z-score?
Response: Not met

Request: Entry NC(=O)N1C(=O)C2C(C1=O)C1C=C(CCCO)C2C(c2ccc(CN3CCCC3)cc2)N1Cc1cc2c(cc1Br)OCO2 (centres undefined) : is its z-score no less than 0.6?
Response: Not met

Request: # check: z-score of COc1ccc([Si](C)(C)[C@@H]2[C@@H](CC(=O)N3Cc4ccccc4C[C@H]3CO)O[C@]3(C(=O)N(Cc4cccc(N5CCOC5=O)c4)c4ccccc43)[C@H]2C)cc1 is greater than or equal to 0.6
Response: Not met

Request: Test whether the compound CN(C)CCCC[C@@H]1NC(=O)[C@@H]2C[C@H](C(=O)NCCCCCN)[C@H](c3cccc(OCCO)c3)N2C1=O records z-score of 0.6 or higher.
Response: Not met

Request: # check: z-score of COC(=O)[C@@]1(Cc2ccccc2)[C@H]2c3cc(C(=O)N(C)C)n(Cc4ccc(C(F)(F)F)nc4)c3C[C@H]2CN1C(=O)c1ccccc1 is greater than or equal to 0.6
Response: Met

Request: Could you please find out whether Cc1ccc(S[C@]2(C(=O)NCCCN(C)C)CC(=O)N(C3Cc4ccccc4C3)[C@@H]2c2ccc(CO)cc2I)cc1 has z-score that meets 0.6 or exceeds it?
Response: Not met

====

# method: calcein-AM signal in unstimulated myeloma cells – cell-based, calcein-AM fluorescence, 48 h, PK04 Diversity Set, profiling panel (AID 1166);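 further: cells grown under basal conditions without added stimulus; test concentration not given here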
# measurement_conditions: RPMI8226 myeloma viability, higher = more signal
parameter_measured: z-score
# output: bare number, no unit

molecule	z-score
COC(=O)[C@@]1(Cc2ccc(OC)cc2)[C@H]2c3cc(C(=O)N4CCCC4)n(Cc4ccc(C(F)(F)F)nc4)c3C[C@H]2CN1C(=O)c1ccccc1	-1.33
[N-]=[N+]=Nc1ccccc1[C@@H]1OC(c2ccc(OCCCO)cc2)=N[C@]1(CCS(=O)(=O)c1ccccc1)C(=O)NCC(O)CO (some centres undefined)	0.274
CCOC(=O)C1=CC[C@@H](c2ccccc2)N(S(=O)(=O)c2ccc(C)cc2)[C@H]1c1ccccc1I	-0.965

What the record says about COCCOC(=O)N1C(=O)[C@@]2(c3cc(C#CCNC(N)=O)ccc31)[C@H](C(=O)Nc1nc3ccccc3s1)[C@H]1C(=O)O[C@H](c3ccccc3)[C@H](c3ccccc3)N1[C@@H]2c1ccccc1OCCO : z-score is 0.405

====

# method: JC-1 mitochondrial signal, unstimulated HepG2 cells – cell-based, JC-1 fluorescence, 24 h, 100 nL compound, profiling panel (AID 1167); further: test concentration not given here
# measurement_conditions: HepG2 mitochondrial potential, higher = more signal
Entries and their z-score
Provide a numeric answer; units are not to be included.

molecule	parameter_measured	reading
O=C1C[C@]2(c3ccc([N+](=O)[O-])cc3)C(=O)N(C3CC3)c3cc(CO)ccc3[C@H]2N1C1CCCCC1	z-score	-1.07

The recorded z-score for Cc1ccc(S[C@]2(C(=O)NCCCN(C)C)CC(=O)N(C3Cc4ccccc4C3)[C@@H]2c2ccc(CO)cc2I)cc1 is -0.188

Lab note: measured z-score of C=C(/C(=C/C[C@@H](OC(C)=O)c1cccc(OCCO)c1)c1cnc2ccccc2c1)C(C)C was -1.63

The molecule identified as COC(=O)[C@@]1(Cc2ccc(F)cc2)[C@H]2c3cc(C(=O)N4CCCC4)n(Cc4cc(F)cc5c4OCOC5)c3C[C@H]2CN1C(=O)c1ccccc1 registered its z-score at 3.05

====

# method: JC-1 mitochondrial signal, unstimulated HepG2 cells – cell-based, JC-1 fluorescence, 24 h, 100 nL compound, profiling panel (AID 1167); further: test concentration not given here
# measurement_conditions: HepG2 mitochondrial potential, higher = more signal
Label yes (1) when z-score is at or above 0.7; anything below gets no (0).

compound	label_value
O=C(NCC(O)CO)[C@@]1(CCS(=O)(=O)c2ccccc2)N=C(c2ccc(OCCCO)cc2)O[C@H]1c1ccccc1 (stereo partly drawn)	yes (1)
CCOc1cc(C(O)C2C=CC3C(=O)N(c4ccccc4)C(=O)C3N2Nc2ccccc2F)ccc1O (stereo not drawn)	no (0)
CCCCCC1=C2CNC(CC(C)C)(C(=O)OC)C=C2C(C)C1=O (stereo not drawn)	yes (1)
C=CCN1Cc2ccccc2[C@H]2OC(c3ccc(OCCCO)cc3)=N[C@@]2(CCS(=O)(=O)c2ccccc2)C1=O	no (0)
O=C(NCc1ccccc1)[C@@H]1c2ccccc2C(=O)N(Cc2ccc(OC(F)(F)F)cc2)[C@H]1c1ccc(CO)cc1	yes (1)
COC(=O)[C@@]1(Cc2ccccc2)[C@H]2c3cc(C(=O)N(C)C)n(CCSC(=N)N)c3C[C@H]2CN1C(=O)c1ccccc1	no (0)

Request: Kindly determine if z-score recorded for C=CCNC(=O)[C@H]1[C@@H]2C(=O)O[C@@H](c3ccccc3)[C@@H](c3ccccc3)N2[C@@H](c2ccc(OCCO)cc2)[C@]12C(=O)Nc1ccc(C#CC3(O)CCCCCC3)cc12 is above or exactly 0.7.
Response: no (0)

Request: In plain terms: is recorded z-score at least 0.7 for O=C1C2C=CC(C(O)C3CCCCC3)N(n3cnnc3)C2C(=O)N1Cc1ccccc1 (stereo not drawn) ?
Response: no (0)

Each recorded value in this set is attributed to PubChem BioAssay.
